Data origin: ChEMBL document CHEMBL5046323

tested on: MDR1 (P-gp); assay: Efflux ratio of apparent permeability from basolateral to apical side over apical to basolateral side in dog MDCK-MDR1 cells; assay type: ADME, cell-based, Canis lupus familiaris
Quantity: efflux ratio
Numbers only.

Answered examples (5):
Q: Notebook: pull reported efflux ratio for MDR1 (P-gp), entry `C[C@@H](CN1CCC2(CC1)CC(=O)Nc1ccccc12)NC(=O)c1ccc(F)cc1`
Result: 11

Q: Record: `CC[C@H]1CN(C(=O)[C@H](C)N2CCC(n3c(=O)[nH]c4ccccc43)CC2)CCN1`
Result: 50

Q: Next record, please: `C[C@@H](CN1CCC(N2CCNC2=O)CC1)NC(=O)c1ccc(F)cc1`
Result: 7.7

Q: Same read-out for `C[C@@H](C(=O)N1CCOCC1)N1CCC(n2c(=O)[nH]c3ccccc32)CC1` ?
Result: 36

Q: Note, next up: `C[C@@H](CN1CCC2(CC1)OC(=O)NC[C@H]2c1cccc(F)c1)NC(=O)c1ccc(F)cc1`
Result: 12

Could you tell me efflux ratio for each of these compounds? They are listed below.
1. C[C@@H](CN1CCC2(CC1)OC(=O)Nc1ccncc12)NC(=O)c1ccc(F)cc1
2. C[C@@H]1CNCCN1C(=O)[C@H](C)N1CCC(n2c(=O)[nH]c3ccccc32)CC1
3. C[C@@H](CN1CCC(n2c(=O)[nH]c3ccccc32)CC1)NC(=O)c1ccc(F)cc1
4. C[C@H]1CN(C(=O)[C@H](C)N2CCC(n3c(=O)[nH]c4ccccc43)CC2)CCN1

Result:
[47, 5.4, 82, 5.5]

For every item below, please supply its efflux ratio.
1. C[C@@H]1CN(C(=O)[C@H](C)N2CCC(n3c(=O)[nH]c4ccccc43)CC2)CCN1
2. C[C@@H]1CN(C(=O)[C@H](C)N2CCC(n3c(=O)[nH]c4ccccc43)CC2)C[C@@H](C)N1
3. CC(=O)N(C)CCN1CCC(n2c(=O)[nH]c3cc(Cl)ccc32)CC1
4. C[C@@H](CN1CCC(N2C(=O)Cc3ccccc32)CC1)NC(=O)c1ccc(F)cc1

Result:
1. 13
2. 9.2
3. 24
4. 8

Provide efflux ratio for all items below, preserving their order.
1. C[C@@H]1CN(C(=O)[C@H](C)N2CCC(n3c(=O)[nH]c4ccccc43)CC2)Cc2ccccc21
2. C[C@@H](CN1CCC2(CC1)OC(=O)Nc1ccccc12)NC(=O)c1ccc(F)cc1

Result:
1. 22
2. 218
